tested on: PRKCB; design: species or system human, MV4-11 + K-562 + COLO205 + SK-N-BE2 + OVCAR-8; settings: compound concentrations:0.3nM, 1nM, 3nM, 10nM, 30nM, 100nM, 300nM, 1000nM,R2:0.978843793099339,slope:1.0046603573044399,EC50 Standard Error, by the legend:Standard error of the EC50 estimation as provided by the drc package.
value.kind: EC50 (nM)

molecule="CCn1c(-c2nonc2N)nc2c(C#CC(C)(C)O)nc(OCCN)cc21.CCn1c(-c2nonc2N)nc2c(C#CC(C)(C)O)nc(OCCN)cc21.Cl.Cl [GSK902056A]" reported=410

----------
tested on: FRK; set-up: species or system human, MV4-11 + K-562 + COLO205 + SK-N-BE2 + OVCAR-8; settings: read-out: apparent Kd; compound concentrations:100 nM and 1000 nM (sheet 'Samples'); n = 1
Each record here notes measured potency estimated from few doses.
value.kind: potency estimated from few doses (µM)

molecule="CCN(CC)CCOc1ccc(Nc2ncc3cc(-c4c(Cl)cccc4Cl)c(=O)n(C)c3n2)cc1 [SB-601273]" unit_abbrev=µM reported=0.103
molecule="Cc1ccc2c(-c3ccncc3)c(-c3ccc(F)cc3)nn2c1.Cl [GW461484A]" unit_abbrev=µM reported=0.887
molecule="Cl.Cl.NCC(C(=O)Nc1cc(Br)c(-c2ccnc3[nH]ccc23)s1)c1ccccc1.NCC(C(=O)Nc1cc(Br)c(-c2ccnc3[nH]ccc23)s1)c1ccccc1 (stereo not drawn) [GSK1269851A]" unit_abbrev=µM reported=0.846
molecule="NCCNS(=O)(=O)c1ccc(-c2ccnc3[nH]ccc23)cc1 [GSK977617A]" unit_abbrev=µM reported=0.832
molecule="CN1C[C@@H]2Cn3c(c(C4=C(c5cn(C)c6ccccc56)C(=O)NC4=O)c4ccccc43)C[C@H]2C1.Cl [RO0320234-001]" unit_abbrev=µM reported=0.29
molecule="O=C1NC(=O)C(N2CCc3ccccc32)=C1c1ccccc1Cl [SB-373598]" unit_abbrev=µM reported=0.33

----------
tested on: PKN3; set-up: species or system human, MV4-11 + K-562 + COLO205 + SK-N-BE2 + OVCAR-8; conditions: read-out: apparent Kd; compound concentrations:100 nM and 1000 nM (sheet 'Samples'); n = 1
value.kind: potency estimated from few doses

compound=CN1CCC(n2cnc(-c3ccc(F)cc3)c2-c2ccnc(N)n2)CC1 value_kind="potency estimated from few doses" reported="1520 nM"
compound="Cc1occc1-c1nc(N)c(OC[C@@H](N)Cc2c[nH]c3ccccc23)cc1-c1cc2c(C)n[nH]c2cn1 [GSK1660450B]" value_kind="potency estimated from few doses" reported="845 nM"
compound="CCn1c(-c2nonc2N)nc2c(C#CC(C)(C)O)ncc(OC[C@@H]3CCCN3)c21.O=C(O)C(F)(F)F [GSK614526A]" value_kind="potency estimated from few doses" reported="150 nM"
compound="CC(=O)c1c(-c2ccncc2)[nH]c(-c2ccncc2)c1C [GW493036X]" value_kind="potency estimated from few doses" reported="1070 nM"
compound="Cc1csc(-c2nc(Nc3ccncc3)c3ccccc3n2)n1 [GW869640X]" value_kind="potency estimated from few doses" reported="939 nM"
compound=CN1C[C@@H]2Cn3c(c(C4=C(c5cn(C)c6ccccc56)C(=O)NC4=O)c4ccccc43)C[C@H]2C1.Cl value_kind="potency estimated from few doses" reported="1500 nM"
compound=CCn1c(-c2nonc2N)nc2cncc(Br)c21 value_kind="potency estimated from few doses" reported="1320 nM"
compound="CCn1c(-c2nonc2N)nc2c(C#CC(C)(C)O)ncc(OCCCCN)c21.CCn1c(-c2nonc2N)nc2c(C#CC(C)(C)O)ncc(OCCCCN)c21.O=C(O)C(F)(F)F.O=C(O)C(F)(F)F [GSK507274A]" value_kind="potency estimated from few doses" reported="13 nM"
compound="CCn1c(-c2nonc2N)nc2c(C#CC(C)(C)O)nc(OCCNC)cc21.Cl [GSK949675A]" value_kind="potency estimated from few doses" reported="2.48 nM"
compound="CCn1c(-c2nonc2N)nc2c(C#CC(C)(C)O)nc(O[C@@H](CN)c3ccccc3)cc21.O=C(O)C(F)(F)F [GSK1007102B]" value_kind="potency estimated from few doses" reported="2.06 nM"
compound="Cl.Cl.NCC(C(=O)Nc1cc(Br)c(-c2ccnc3[nH]ccc23)s1)c1ccccc1.NCC(C(=O)Nc1cc(Br)c(-c2ccnc3[nH]ccc23)s1)c1ccccc1 (stereo not shown) [GSK1269851A]" value_kind="potency estimated from few doses" reported="863 nM"
compound=Fc1ccc(-c2c(-c3ccncc3)[nH]c3nccnc23)cc1 value_kind="potency estimated from few doses" reported="31.1 nM"
compound="Cc1ccc2c(-c3ccncc3)c(-c3ccc(F)cc3)nn2c1.Cl [GW461484A]" value_kind="potency estimated from few doses" reported="1390 nM"
compound=CCn1c(-c2nonc2N)nc2cncc(C(=O)N3CC[C@H](N)C3)c21.Cl value_kind="potency estimated from few doses" reported="1710 nM"
compound=Cl.NCc1ccc(-c2nc(-c3ccc(Cl)c(O)c3)c(-c3ccncc3)[nH]2)cc1 value_kind="potency estimated from few doses" reported="36 nM"
compound=Cl.ON=C1CCc2cc(-c3nc(C4CCNCC4)[nH]c3-c3ccncc3)ccc21 value_kind="potency estimated from few doses" reported="125 nM"

----------
tested on: PRKACB; parameters: species or system human, MV4-11 + K-562 + COLO205 + SK-N-BE2 + OVCAR-8; settings: compound concentrations:0.3nM, 1nM, 3nM, 10nM, 30nM, 100nM, 300nM, 1000nM,R2:0.87991730549407599,slope:0.899687988537484,EC50 Standard Error, by the legend:Standard error of the EC50 estimation as provided by the drc package.
value.kind: EC50 (nM)

compound="CCn1c(-c2nonc2N)nc2c(C#CC(C)(C)O)nc(OCCN)cc21.CCn1c(-c2nonc2N)nc2c(C#CC(C)(C)O)nc(OCCN)cc21.Cl.Cl [GSK902056A]" unit_abbrev=nM reported=145

----------
Each record here notes measured potency estimated from few doses.
test system: RAB5C; parameters: species or system human, MV4-11 + K-562 + COLO205 + SK-N-BE2 + OVCAR-8; details: read-out: apparent Kd; compound concentrations:100 nM and 1000 nM (sheet 'Samples'); n = 1
value.kind: potency estimated from few doses (µM)

compound="CC(=O)c1c(-c2ccncc2)[nH]c(-c2ccncc2)c1C [GW493036X]" tested_system=RAB5C reported=1.6
compound="Cc1cnc(Nc2ccc(F)cc2Cl)nc1-c1c[nH]c(C(=O)N[C@H](CO)c2cccc(Cl)c2)c1 [Vertex11e]" tested_system=RAB5C reported=1.33
compound="COc1cc2ncn(-c3cc(OCc4cccs4)c(C(N)=O)s3)c2cc1OC [GSK312948A]" tested_system=RAB5C reported=1.45
compound="O=c1cc(N2CCOCC2)nc2n(Cc3cccc(C(F)(F)F)c3)ccn12 [GSK2297543A]" tested_system=RAB5C reported=0.976

----------
system: PRKAG2; parameters: species or system human, MV4-11 + K-562 + COLO205 + SK-N-BE2 + OVCAR-8; details: read-out: apparent Kd; compound concentrations:100 nM and 1000 nM (sheet 'Samples'); n = 1
potency estimated from few doses vs 600 nM: at or above is rule met, below is rule not met.

molecule=CC(=O)N[C@@H](Cc1ccc(OP(=O)(O)O)cc1)C(=O)N[C@H]1CCC(=O)N2CCC[C@@H](C(=O)NCc3ccc(Cl)cc3)N2C1=O classification="rule not met"
molecule="Cc1ccc(NC(=O)CC2CC2)cc1-c1ccc(C(=O)NCC2CC2)cc1 [GW796920X]" classification="rule met"
molecule=O=C1NC(=O)C(N2CCc3ccccc32)=C1c1ccccc1Cl classification="rule met"
molecule="COc1ccc(C[C@@H](CN)NC(=O)c2cc(Br)c(-c3ccnc4[nH]ccc34)s2)cc1.COc1ccc(C[C@@H](CN)NC(=O)c2cc(Br)c(-c3ccnc4[nH]ccc34)s2)cc1.Cl.Cl [GSK1389063A]" classification="rule met"
molecule="CNc1cc(-c2ccc3c(N)n[nH]c3c2)nc(N)n1 [GSK2224810A]" classification="rule met"
molecule="CCn1c(-c2nonc2N)nc2c(C#CC(C)(C)O)nc(O[C@@H](CN)c3ccccc3)cc21.O=C(O)C(F)(F)F [GSK1007102B]" classification="rule not met"

----------
system: SMC4; parameters: species or system human, MV4-11 + K-562 + COLO205 + SK-N-BE2 + OVCAR-8; settings: read-out: apparent Kd; compound concentrations:100 nM and 1000 nM (sheet 'Samples'); n = 1
Each record here notes measured potency estimated from few doses.
value.kind: potency estimated from few doses (nM)

molecule="COc1cccc(C2=C(Nc3cccc(C(=O)O)c3)C(=O)NC2=O)c1 [SB-390770]" value_kind="potency estimated from few doses" reported=986
molecule="Cn1cc(C2=C(c3c4n(c5ccccc35)CCN(C(N)=S)C4)C(=O)NC2=O)c2ccccc21 [RO0319377-000]" value_kind="potency estimated from few doses" reported=2130
molecule="COC(=O)Nc1nc2cc(Oc3ccc(NC(=O)Nc4cccc(SC)c4)cc3)ccc2[nH]1.Cl [GW697999A]" value_kind="potency estimated from few doses" reported=2010
molecule="Nc1nc(-c2ccc3c(N)n[nH]c3c2)cc(N2CCCCC2)n1 [GSK2228768A]" value_kind="potency estimated from few doses" reported=2040
molecule="COC(=O)Nc1nc2ccc(Oc3ccc(CC(=O)Nc4cc(C(F)(F)F)ccc4F)cc3)cc2[nH]1 [GW680903X]" value_kind="potency estimated from few doses" reported=1910
